FYI, the data here is from patent US8188135B2.

# assayTarget: Rat CB1 (Rattus norvegicus)
# Construct: expressed in transfected cells; host or cells: HEK
# Sequence (P20272 whole entry): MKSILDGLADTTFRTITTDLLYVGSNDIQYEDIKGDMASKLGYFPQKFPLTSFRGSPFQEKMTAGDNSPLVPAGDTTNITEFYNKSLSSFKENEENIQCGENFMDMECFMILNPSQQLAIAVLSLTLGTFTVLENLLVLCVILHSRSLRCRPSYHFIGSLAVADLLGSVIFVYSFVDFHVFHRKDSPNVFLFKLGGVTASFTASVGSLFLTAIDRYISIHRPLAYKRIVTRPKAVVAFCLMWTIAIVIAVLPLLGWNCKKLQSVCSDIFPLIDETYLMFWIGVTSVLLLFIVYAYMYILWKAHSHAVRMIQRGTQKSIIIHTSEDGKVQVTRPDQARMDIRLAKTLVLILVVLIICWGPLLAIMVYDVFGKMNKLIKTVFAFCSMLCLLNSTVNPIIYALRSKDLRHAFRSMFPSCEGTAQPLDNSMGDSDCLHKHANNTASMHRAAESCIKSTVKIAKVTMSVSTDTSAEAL
# experimentDescription: rat CB1 cyclase functional assay (HitHunter cAMP)
# Type: cell-based
# particulars: Rat CB1 cyclase (EC50, nM), HEK cells, forskolin 37 μM
# Description: The cyclase functional assays were performed using the HitHunter™ cAMP assay kit from DiscoveRx (Fremont, Calif.) according to vendor's protocol. […] The reactions were terminated by the addition of lysis buffer and the luminescence was detected following the procedure according to the manufacturer's instructions. EC50 values were calculated using sigmoidal dose-response curve fitting from Prism (GraphPad).
Readings of EC50 for the listed compounds
Numbers only; they are read as nM.

| compound | EC50 [nM] |
| --- | --- |
| CN1CCC[C@H]1COc1ccc(C(F)(F)F)cc1C(=O)/N=c1\oc(C(C)(C)C)cn1C[C@H]1CCCO1 [Example 32] | 3870 |
| Cn1c(C(C)(C)C)c/c(=N\C(=O)c2cc(C(F)(F)F)ccc2OCC(O)CO)n1C[C@H]1CCCO1 (stereo partly shown) [Example 42] | 6100 |
| Cn1c(C(C)(C)C)c/c(=N\C(=O)c2cc(Cl)ccc2OCC(C)(C)O)n1C[C@H]1CCCO1 [Example 89] | 2320 |

Read the next record carefully.
Reported EC50, compound Cn1c(C(C)(C)C)c/c(=N\C(=O)c2cc(C(F)(F)F)ccc2OCCC(C)(C)O)n1C[C@H]1CCCO1 [Example 20] : ____
6850

* * *

# assayTarget: UniProt Q9QZN9
# experimentDescription: rat CB2 cyclase functional assay (HitHunter cAMP)
# Assay type: cell-based
# Design: expressed in transfected cells; host or cells: HEK
# particulars: rat CB2 cyclase (EC50, nM), HEK cells, forskolin 18 μM
Readings of EC50 for the listed compounds
Numbers only; they are read as nM.

Check out these entries, answers already filled in.
| compound | assayTarget | EC50 / nM |
| --- | --- | --- |
| Cn1c(C(C)(C)C)c/c(=N\C(=O)c2cc(C(F)(F)F)ccc2OC[C@@H]2CCC(=O)N2)n1C[C@H]1CCCO1 | UniProt Q9QZN9 | 0.79 |
| CC(=O)NCCOc1ccc(C(F)(F)F)cc1C(=O)/N=c1\cc(C(C)(C)C)n(C)n1C[C@H]1CCCO1 | UniProt Q9QZN9 | 1.9 |
| Cn1c(C(C)(C)C)c/c(=N\C(=O)c2cc(C(F)(F)F)ccc2OC[C@@H]2COC(C)(C)O2)n1C[C@H]1CCCO1 | UniProt Q9QZN9 | 0.47 |

Which measured EC50 belongs to `Cn1c(C(C)(C)C)c/c(=N\C(=O)c2cc(C(F)(F)F)ccc2OC[C@@H]2CCCN2)n1C[C@H]1CCCO1` , tested on UniProt Q9QZN9?
0.28

Which measured EC50 belongs to CCCCn1nc(C(C)(C)C)s/c1=N\C(=O)c1cc(C(F)(F)F)ccc1OCC1CCCCN1C (stereo not shown) , tested on UniProt Q9QZN9?
2.9

Which measured EC50 belongs to `Cn1c(C(C)(C)C)c/c(=N\C(=O)c2cc(C(F)(F)F)ccc2OC[C@H]2CCCO2)n1C[C@H]1CCCO1` , tested on UniProt Q9QZN9?
1.1

Which measured EC50 belongs to `Cn1c(C(C)(C)C)c/c(=N\C(=O)c2cc(C(F)(F)F)ccc2OCCC(C)(C)O)n1CC1CC1` , tested on UniProt Q9QZN9?
0.46

* * *

# assayTarget: rat CB2 (Rattus norvegicus)
# Sequence (Q9QZN9 whole entry): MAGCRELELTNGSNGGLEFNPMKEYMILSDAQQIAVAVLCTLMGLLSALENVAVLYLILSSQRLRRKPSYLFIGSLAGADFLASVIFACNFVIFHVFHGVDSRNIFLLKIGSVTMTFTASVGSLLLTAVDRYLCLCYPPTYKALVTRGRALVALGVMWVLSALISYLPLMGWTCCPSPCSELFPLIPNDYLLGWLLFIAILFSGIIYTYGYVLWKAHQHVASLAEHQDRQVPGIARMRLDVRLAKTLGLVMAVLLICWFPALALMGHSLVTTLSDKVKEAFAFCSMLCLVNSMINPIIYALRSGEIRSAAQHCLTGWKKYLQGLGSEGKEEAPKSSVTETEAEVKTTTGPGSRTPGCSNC
# experimentDescription: rat CB2 cyclase functional assay (HitHunter cAMP)
# Type: cell-based
# Design: expressed in transfected cells; host or cells: HEK
# particulars: rat CB2 cyclase (EC50, nM), HEK cells, forskolin 18 μM
quantity: EC50 (nM)
Numbers only; they are read as nM.

Check out these entries, answers already filled in.
| compound | EC50 (nM) |
| --- | --- |
| Cn1c(C(C)(C)C)c/c(=N\C(=O)c2cc(C(F)(F)F)ccc2OCC(O)CO)n1C[C@H]1CCCO1 (stereo partly shown) | 0.34 |
| Cn1c(C(C)(C)C)c/c(=N\C(=O)c2cc(C(F)(F)F)ccc2OCC(C)(C)O)n1C[C@H]1CCCO1 | 0.22 |
| CCCCn1/c(=N/C(=O)c2cc(C(F)(F)F)ccc2OCC(C)(C)O)cc(C(C)(C)C)n1C | 0.5 |

Read the next record carefully.
Reported EC50, compound `Cn1c(C(C)(C)C)c/c(=N\C(=O)c2cc(C(F)(F)F)ccc2OCC[C@H]2COC(C)(C)O2)n1C[C@H]1CCCO1` : ____
0.7

* * *

Readings of pKi for the listed compounds
# assayTarget: UniProt Q9QZN9
# experimentDescription: rat CB2 radioligand binding assay ([3H]CP 55,940 competition)
# Parameters: expressed in transfected cells; host or cells: HEK293
# particulars: HEK293 membranes, 0.5 nM [3H]CP 55,940; read-out: rat CB2 (Ki)
# pKi: negative log10 of molar concentration; output just the value

Check out these entries, answers already filled in.
| compound | dataValue |
| --- | --- |
| CSC(C)(C)COc1ccc(C(F)(F)F)cc1C(=O)/N=c1\cc(C(C)(C)C)n(C)n1C[C@H]1CCCO1 [Example 64] | 6.94 |
| CCCCn1/c(=N/C(=O)c2cc(C#N)ccc2OCC(C)(C)O)cc(C(C)(C)C)n1C [Example 108] | 6.54 |
| CCCCn1cc(C(C)(C)C)o/c1=N\C(=O)c1cc(C(F)(F)F)ccc1OC[C@@H]1CCCN1C [Example 76] | 6.61 |
| Cn1c(C(C)(C)C)c/c(=N\C(=O)c2cc(C(F)(F)F)ccc2OCC(C)(C)O)n1CC1CCOCC1 [Example 95] | 6.48 |
| CO[C@H]1CCO[C@@H]1COc1ccc(C(F)(F)F)cc1C(=O)/N=c1\cc(C(C)(C)C)n(C)n1C[C@H]1CCCO1 [Example 22] | 6.37 |
| Cn1c(C(C)(C)C)c/c(=N\C(=O)c2cc(C(F)(F)F)ccc2OC[C@@H]2C=CCO2)n1C[C@H]1CCCO1 [Example 25] | 7.70 |
| C/C(COc1ccc(C(F)(F)F)cc1C(=O)/N=c1\cc(C(C)(C)C)n(C)n1C[C@H]1CCCO1)=N\OC1CCCCO1 (some centres unmarked) [Example 79] | 6.89 |
| COC(=O)c1ccc(OCC(C)(C)O)c(C(=O)/N=c2\cc(C(C)(C)C)n(C)n2C[C@H]2CCCO2)c1 [Example 132] | 7.29 |

Reported pKi, compound C[C@@H](O)[C@@H](C)Oc1ccc(C(F)(F)F)cc1C(=O)/N=c1\cc(C(C)(C)C)n(C)n1C[C@H]1CCCO1 [Example 104] : ____
6.50

Reported pKi, compound Cn1c(C(C)(C)C)c/c(=N\C(=O)c2cc(C(F)(F)F)ccc2OCC(C)(C)CO)n1C[C@H]1CCCO1 [Example 116] : ____
6.70

Reported pKi, compound CN1CCC[C@H]1COc1ccc(C(F)(F)F)cc1C(=O)/N=C1\OC(C(C)(C)C)CN1C[C@H]1CCCO1 (some centres unmarked) [Example 73] : ____
6.64

Reported pKi, compound Cn1c(C(C)(C)C)c/c(=N\C(=O)c2cc(C(F)(F)F)ccc2OC[C@@H]2CCC(C)(C)O2)n1C[C@H]1CCCO1 [Example 52] : ____
7.72

Reported pKi, compound Cn1c(C(C)(C)C)c/c(=N\C(=O)c2cc(C(F)(F)F)ccc2OC[C@@H](O)CNC(C)(C)C)n1C[C@H]1CCCO1 [Example 105] : ____
6.39

* * *

# assayTarget: human CB2 receptors (Homo sapiens, UniProt P34972)
# Construct: expressed in transfected cells; host or cells: HEK293
# Sequence (P34972 whole entry): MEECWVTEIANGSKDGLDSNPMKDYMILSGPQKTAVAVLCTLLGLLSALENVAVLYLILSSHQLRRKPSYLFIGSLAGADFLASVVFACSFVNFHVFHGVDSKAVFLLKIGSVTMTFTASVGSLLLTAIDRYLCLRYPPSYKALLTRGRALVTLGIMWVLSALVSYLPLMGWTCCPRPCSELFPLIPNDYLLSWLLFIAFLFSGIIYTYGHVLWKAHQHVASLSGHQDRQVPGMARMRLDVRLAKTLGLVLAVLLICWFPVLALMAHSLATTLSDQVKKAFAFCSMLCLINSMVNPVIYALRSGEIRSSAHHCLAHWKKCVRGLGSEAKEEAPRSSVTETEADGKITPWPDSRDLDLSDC
# experimentDescription: human CB2 radioligand binding assay ([3H]CP 55,940 competition)
# particulars: human CB2 (Ki, nM), HEK293 membranes, 0.5 nM [3H]CP 55,940
Readings of Ki for the listed compounds
Numbers only; they are read as nM.

Check out these entries, answers already filled in.
| compound | dataValue |
| --- | --- |
| Cn1c(C(C)(C)C)c/c(=N\C(=O)c2cc(C(F)(F)F)ccc2OC[C@@H]2CCCO2)n1Cc1ccc(F)cc1 | 28 |
| C[C@@H](O)COc1ccc(C(F)(F)F)cc1C(=O)/N=c1\cc(C(C)(C)C)n(C)n1C[C@H]1CCCO1 | 38 |
| Cn1c(C(C)(C)C)c/c(=N\C(=O)c2cc(C(F)(F)F)cc(Cl)c2OC[C@@H]2CCCO2)n1C[C@H]1CCCO1 | 44 |
| CC(C)[C@H](O)COc1ccc(C(F)(F)F)cc1C(=O)/N=c1\cc(C(C)(C)C)n(C)n1C[C@H]1CCCO1 | 1.8 |

Reported Ki, compound `CN1CC[C@H]1COc1ccc(C(F)(F)F)cc1C(=O)/N=c1\oc(C(C)(C)C)cn1C[C@H]1CCCO1` : ____
188

Reported Ki, compound `CSCCOc1ccc(C(F)(F)F)cc1C(=O)/N=c1\cc(C(C)(C)C)n(C)n1C[C@H]1CCCO1` : ____
11

Reported Ki, compound `CCCCn1/c(=N/C(=O)c2cc(C(F)(F)F)ccc2OCC(C)(C)O)cc(C(C)(C)C)n1C` : ____
44
